- measurement.description: Fraction unbound in rat plasma
- Type: ADME, cell-free
property.label: fraction unbound
Give only the figure.

Requested field: fraction unbound. Item: C[C@@H]1CN(c2ccc3c(n2)NC(=O)CO3)[C@H](c2ccccc2)CO1
0.15

====

- measurement.description: Intrinsic clearance in human liver microsomes
Reported microsomal CLint values are given for each entry in this list.
Enter your answer as a number in µL/min/mg; do not include the unit.

# count of solved cases: 5
Return reported microsomal CLint; argument: C[C@@H]1CN(c2cc3c(cn2)OCC(=O)N3)[C@H](c2ccccc2)CO1
12.6

Return reported microsomal CLint; argument: CC1(C)CN(c2ccc3c(n2)NC(=O)CO3)[C@H](c2ccccc2)CO1
15.2

Look up microsomal CLint: C[C@@H]1CN(c2ccc3c(n2)NC(=O)CO3)[C@H](c2ccccc2F)CO1
14

Look up microsomal CLint: C[C@@H]1CN(c2cnc3c(c2)NC(=O)CO3)[C@H](c2ccccc2)CO1
13.9

Field request: microsomal CLint | item: C[C@@H]1CN(c2ncc3c(n2)NC(=O)CO3)[C@H](c2ccccc2)CO1
8

Next:
Bench note: what microsomal CLint did C[C@@H]1CN(c2ccc3c(n2)NC(=O)CO3)[C@H](c2cccc(F)c2)CO1 show?
9.6

What measured microsomal CLint goes with COC[C@@H]1CN(c2ccc3c(n2)NC(=O)CO3)[C@H](c2ccccc2)CO1 ?
8

Which microsomal CLint value is on record for O=C1COc2ccc(N3CCOC[C@H]3c3ccccc3)nc2N1 ?
8.9

====

- measurement.description: AUC in Wistar rat at 500 mg/kg, po administered as single dose measured up to 8 hrs post dose by LC-MS analysis
- Format: ADME, organism-based
- Design: dose 500 mg/kg, time < 8 hr, route oral
- condition.context: in vivo
property.label: AUC at 8 h (ng·h/mL)
// return numeric value only (unit: ng·h/mL, not printed)

Report AUC at 8 h for C[C@@H]1CN(c2ccc3c(n2)NC(=O)CO3)[C@H](c2ccccc2)CO1 please.
13500

====

- measurement.description: AUC in Wistar rat at 100 mg/kg, po administered as single dose measured up to 8 hrs post dose by LC-MS analysis
- Assay type: ADME, organism-based
- Parameters: dose 100 mg/kg, time < 8 hr, route oral
- condition.context: in vivo
property.label: AUC at 8 h (ng·h/mL)
Please reply with the bare figure in ng·h/mL and do not write the unit itself.

Data request, read-out AUC at 8 h, for C[C@@H]1CN(c2ccc3c(n2)NC(=O)CO3)[C@H](c2ccccc2)CO1
9410

====

- target.system: Mineralocorticoid receptor (Homo sapiens, UniProt P08235)
- Sequence (P08235 whole entry): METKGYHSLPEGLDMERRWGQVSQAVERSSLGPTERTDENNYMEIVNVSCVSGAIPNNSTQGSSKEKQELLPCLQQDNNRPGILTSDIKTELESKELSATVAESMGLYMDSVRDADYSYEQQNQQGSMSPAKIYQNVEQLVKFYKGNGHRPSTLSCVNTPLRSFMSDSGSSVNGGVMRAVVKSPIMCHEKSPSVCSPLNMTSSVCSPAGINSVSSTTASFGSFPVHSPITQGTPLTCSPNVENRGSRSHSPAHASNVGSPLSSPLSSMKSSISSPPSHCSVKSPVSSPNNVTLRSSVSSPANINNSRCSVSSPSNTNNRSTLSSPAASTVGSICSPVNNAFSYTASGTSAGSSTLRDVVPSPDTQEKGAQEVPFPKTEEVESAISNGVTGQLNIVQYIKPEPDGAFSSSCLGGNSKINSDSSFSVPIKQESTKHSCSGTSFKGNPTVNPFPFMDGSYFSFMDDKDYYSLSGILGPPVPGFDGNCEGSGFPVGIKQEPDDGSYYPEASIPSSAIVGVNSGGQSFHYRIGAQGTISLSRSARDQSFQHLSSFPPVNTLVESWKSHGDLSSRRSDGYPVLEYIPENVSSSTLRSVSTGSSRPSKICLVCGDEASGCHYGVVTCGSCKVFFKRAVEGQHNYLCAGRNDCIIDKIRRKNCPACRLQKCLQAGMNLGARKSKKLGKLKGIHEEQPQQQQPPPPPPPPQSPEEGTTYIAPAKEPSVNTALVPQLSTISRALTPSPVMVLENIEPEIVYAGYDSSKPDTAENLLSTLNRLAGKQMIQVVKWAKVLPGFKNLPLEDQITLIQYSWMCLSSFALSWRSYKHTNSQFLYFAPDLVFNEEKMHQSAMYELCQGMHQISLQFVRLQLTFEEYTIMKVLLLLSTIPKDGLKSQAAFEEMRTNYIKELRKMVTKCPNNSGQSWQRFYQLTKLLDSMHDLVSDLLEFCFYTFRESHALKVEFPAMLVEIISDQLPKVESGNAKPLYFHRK
Measured IC50 of individual entries
Reply with just the number (in nM).

For the molecule shown here, O=C1COc2ccc(N3C[C@@H](CO)OC[C@H]3c3ccccc3)nc2N1 , give the reported IC50.
10000

Would you kindly share the measured IC50 for COC[C@@H]1CN(c2ccc3c(n2)NC(=O)CO3)[C@H](c2ccccc2)CO1 ?
358

Which IC50 reading was recorded for the molecule C[C@@H]1CN(c2ccc3c(n2)NC(=O)CO3)[C@H](c2ccccc2F)CO1 ?
33
